# EXPERIMENTAL_PARAMETERS: acidic group
EXPERIMENTAL_READOUT: pKa

| COMPOUND | EXPERIMENTAL_READOUT | RESULT |
| --- | --- | --- |
| O=C(Nc1ccccc1)ONC(=O)c1ccccc1 | pKa | 6.4 |
| Cc1ccccc1-c1nnn[nH]1 | pKa | 4.09 |
| O=C(O)c1ccc2ccccc2[nH+]1 | pKa | 1.79 |
| NC(=O)C(CCCCC(=O)O)c1ccccc1 (stereo not drawn) | pKa | 4.79 |
| Oc1c(Cl)cc(Cl)c2cccnc12 | pKa | 7.51 |

get_value(item= C=CCc1ccc(O)c(OC)c1 , readout=pKa) returns 10

ON=C(c1ccccc1)c1ccccc1 yielded pKa of 11.3

The compound listed as O=Cc1cc(Br)cc([N+](=O)[O-])c1O has a reported pKa of 4.46

In plain terms, COc1ccc2c3c([nH]c2c1)C(C)=NCC3 has a documented pKa of 15.3

What the record says about O=C(C[n+]1cccc2c3ccccc3ccc21)c1ccc([N+](=O)[O-])cc1 : pKa is 9.45

Item: COc1cc(S(C)=O)ccc1-c1nc2nccnc2[nH]1 (stereo not drawn) | pKa: 8.94

Sure, the documented pKa for C[NH+](C)Cc1cc(Cl)ccc1O is 8.02

The value of pKa measured for the compound NC(=O)C(N)CC(=O)O (stereo not drawn) turned out to be 7.95

For [NH3+]CC(=O)O the compound record lists pKa as 2.36

In plain terms, C/C(O)=N\[N+](C)(C)C has a documented pKa of 5.42

Noted for Cc1nn(-c2ccccc2)c(O)c1C(C)C : its pKa reads 11.6

###

# EXPERIMENTAL_PARAMETERS: acidic group
EXPERIMENTAL_READOUT: pKa
Number only, please.

// known answers, use as guide
| MOLECULE | EXPERIMENTAL_READOUT | NUMERIC_READOUT |
| --- | --- | --- |
| CC(=O)[n+]1ccc(N)cc1 | pKa | 9.15 |
| N#Cc1ccc(O)c(O)c1 | pKa | 7.72 |
| C[n+]1ccccc1N | pKa | 12.2 |
| O=C(O)Cc1ccoc1 | pKa | 4.07 |
| CCCCCCCCCc1c(-c2ccccc2)nn(-c2ccccc2)c1O | pKa | 7.2 |
| O=[N+]([O-])c1ccc[nH]1 | pKa | 10.6 |
| [NH3+]C(CC(=O)[O-])C(=O)NC(CC(=O)O)C(=O)[O-] (centres undefined) | pKa | 4.7 |
| Cc1cc(C(N)=O)cc(C)[n+]1O | pKa | 2.08 |
| CCCC[NH2+]CC(=O)O | pKa | 2.32 |
| O/N=C\c1ccccc1 | pKa | 11.3 |

Record CC(=O)NOC(C)=O . Reported pKa: 6.81

Value of measured pKa for the entry COc1ccccc1-c1nnn[nH]1 : 4.8

Entry NC(=O)N/N=C/c1ncnc2nc[nH]c12 , pKa reported as 9.1

# molecule C[NH+](C)Cc1cc(F)ccc1O ; its pKa = 8.12

###

# EXPERIMENTAL_PARAMETERS: basic group
Where a SMILES comes first, the peptide text is derived from it.
EXPERIMENTAL_READOUT: pKa
Just the number.

Solved entries (count: 2):
| MOLECULE | pKa |
| --- | --- |
| NC(=O)C[C@H](NC(=O)[C@@H](N)CS)C(=O)O (H-Cys-Asn-OH) | 7.05 |
| Nc1ncc(Cl)s1 | 3.66 |

Let us move to another entry and its pKa.
Lookup result for Cc1cnc2c(c1)c(C)cc1c(C)ccnc12 ; measured pKa: 5.9

Values from the pKa sets of Baltruschat and Czodrowski (2020)
